test system: KM12 colon; assay: NCI tumour cell line growth inhibition, 48 h
Property: TGI; scope: individual compounds
READOUT KIND: TGI (µM)

>>> meas_value("CCCCCCCC/C=C\\CCCCCCC/C=C1\\C[C@](/C=C/C(=O)OC)(CO)OC1=O")
14.2
>>> meas_value("CC(=O)NCCC1CN(C(=O)/C=C/I)c2ccccc21 (stereo not given)")
2.67
>>> meas_value("O=C1C(Cl)=C(OCCCl)C(=O)c2c(O)ccc(O)c21")
40.5

* * *

system: SNB-75 CNS; experiment: NCI tumour cell line growth inhibition, 48 h; in the data active = GI50 below about 0.43 µM; inactive = the rest
Possible outcomes: TRUE (active), FALSE (inactive)

>>> group_label("Cc1c(C(=O)Nc2ccccc2)sc2ncn(Cc3cccc(Cl)c3)c(=O)c12")
"FALSE"
>>> group_label("CN(C)CCN1C(=O)c2c(c3c4ccccc4n4c3c3c2c2ccccc2n3C2CC(O)C(O)C4(C)O2)C1=O (centres undefined)")
"FALSE"
>>> group_label("CSC1=C(N)C(=O)c2[nH]cc(CO)c2C1=N")
"TRUE"
>>> group_label("COc1ccc2c(CN3CCCC[C@H]3C(=O)O)cc3cc4c(cc3c2c1)OCO4")
"TRUE"
>>> group_label("CN1CCN(C(=O)C(C)(C)c2ccc(C(=O)Nc3cn4cc(-c5ccncc5)ccc4n3)cc2)CC1")
"TRUE"
>>> group_label("C=CCN=C(N/N=C/c1ccc([N+](=O)[O-])o1)NS(=O)(=O)c1cc(C(=O)Nc2ccc(Cl)cc2)c(Cl)cc1SC")
"FALSE"
>>> group_label("CC1=C(c2cccc(O)c2)[C@H](c2ccc(OCCN3CC(CF)C3)cc2)Oc2ccc(O)cc21")
"FALSE"
>>> group_label("Cn1ncnc1[C@H]1c2n[nH]c(=O)c3cc(F)cc(c23)N[C@@H]1c1ccc(F)cc1")
"FALSE"
>>> group_label("O=C1OCC2=C1C(c1cccc(Cl)c1)c1cc3c(cc1N2CCO)OCCO3 (centres undefined)")
"TRUE"
